As shown below, each of these compounds has a reported growth inhibition value.
# Protocol text: NCI Yeast Anticancer Drug Screen. Data for the mlh1 rad18 strain (AID 175)
# Recorded conditions: S. cerevisiae mlh1 rad18 strain growth inhibition; at 50.0 µM; stronger effect = higher value
Compounds without any hit were thinned out: in the full panel of roughly 79,000, 15% have a hit.
Outcome measure: growth inhibition (%)

compound="CCOC(=O)CC1c2ccc(O)cc2OC(=O)C1c1ccc(N)cc1 (stereo not drawn)" outcome_measure="growth inhibition" measured_number=-13.6
compound=Cc1ccc(-c2oc3ccccc3c(=O)c2O)cc1 outcome_measure="growth inhibition" measured_number=7.65
compound="Cc1cccc(CSc2nc(N)nc3ncn(C4CC(O)C(CO)O4)c23)n1 (stereo not drawn)" outcome_measure="growth inhibition" measured_number=-19.6
compound="c1ccc(-c2nc3n(n2)CCC(c2ccccc2)S3)cc1 (stereo not drawn)" outcome_measure="growth inhibition" measured_number=-8.75
compound=NC(=O)c1cccc[n+]1[O-] outcome_measure="growth inhibition" measured_number=1.3
compound=O=S1(=O)OCCOS(=O)(=O)C1S(=O)(=O)c1cccc2ccccc12 outcome_measure="growth inhibition" measured_number=27
compound="CN(Cc1cnc2nc(N)nc(N)c2n1)c1ccc(C(=O)NC(CCC(=O)NC(CCC(=O)NC(CCC(=O)NC(CCC(=O)O)C(=O)O)C(=O)O)C(=O)O)C(=O)O)cc1 (stereo not drawn)" outcome_measure="growth inhibition" measured_number=-12.5
compound=CN=Cc1ccccc1O.CN=Cc1ccccc1O.[Cu+2] outcome_measure="growth inhibition" measured_number=3.05
compound=CC(C)C(=O)Nc1cccc([N+](=O)[O-])c1 outcome_measure="growth inhibition" measured_number=-7.6
compound=O=C1C(=O)N(c2cc(Cl)ccc2Cl)C(=O)C(=O)C1c1nc2ccccc2s1 outcome_measure="growth inhibition" measured_number=-19.4
compound="COc1cc2c(cc1Oc1c(O)c(OC)cc3c1C(C)N(C)CC3)C(C)N(C)CC2 (stereo not drawn)" outcome_measure="growth inhibition" measured_number=14.9
compound="CCC(CCC(C)C)(SCC(N)=O)C(=O)O (stereo not drawn)" outcome_measure="growth inhibition" measured_number=-38
compound=c1coc(C2SCSCS2)c1 outcome_measure="growth inhibition" measured_number=-4.2
compound=C[n+]1c(/C=C\c2ccc(O)cc2)cc(C(N)=O)c2ccccc21 outcome_measure="growth inhibition" measured_number=7.7
compound=O=C1/C(=C/c2ccco2)CC/C1=C\c1ccco1 outcome_measure="growth inhibition" measured_number=44.5
compound="CC1C=CCCC1COC(=O)C(=O)OCC1CC=CCC1C (stereo not drawn)" outcome_measure="growth inhibition" measured_number=19.9
compound=CCCCc1c(O)c2c(=O)[nH]c(C)nc2oc1=O outcome_measure="growth inhibition" measured_number=10.9
compound=COc1cc(CN2CCN(CCO)CC2)c(O)c(CN2CCN(CCO)CC2)c1 outcome_measure="growth inhibition" measured_number=6.9
compound=Cc1nc2c(o1)C(=O)c1ccccc1C2=Nc1ccc(N2CCOCC2)cc1 outcome_measure="growth inhibition" measured_number=39.1
compound=Nc1nc(N)nc(-c2ccccc2NS(=O)(=O)c2ccc([N+](=O)[O-])cc2)n1 outcome_measure="growth inhibition" measured_number=38.4
compound="CC(=O)NC1CCC2CCCCC2C1 (stereo not drawn)" outcome_measure="growth inhibition" measured_number=-17.9
compound=O=C(c1cccc(C(=O)N(c2ccccc2)C2CCCCC2)c1)N(c1ccccc1)C1CCCCC1 outcome_measure="growth inhibition" measured_number=-27.9
compound=N#Cc1nc(Cc2ccccc2)oc1N outcome_measure="growth inhibition" measured_number=-22.6

Ref: PubChem BioAssay (NCI)
